Provenance of the data: PubChem BioAssay AID1515

- TARGET SYSTEM: Serine hydrolase RBBP9 (Homo sapiens) (UniProt O75884)
- Sequence (O75884 whole entry, looked up): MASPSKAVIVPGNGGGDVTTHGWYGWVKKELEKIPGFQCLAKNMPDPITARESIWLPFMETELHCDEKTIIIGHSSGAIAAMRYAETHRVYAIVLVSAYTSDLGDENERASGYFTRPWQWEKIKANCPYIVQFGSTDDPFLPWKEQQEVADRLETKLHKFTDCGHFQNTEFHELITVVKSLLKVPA
- PROTOCOL DESCRIPTION: human RBBP9 inhibitors, primary screen, biochemical, fluorescence polarization, FP-Rh probe, HTS (AID 1515);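 note: plate controls were DMSO wells with RBBP9 for no effect and wells lacking RBBP9 protein for full effect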
- CONDITION DESCRIPTION: recombinant RBBP9, FP-Rh probe fluorescence polarization; at 7.94 µM; stronger effect = higher value
The whole screen tested about 220,000 compounds, of which about 440 (0.2%) were called active. For the sample, actives were picked, then their nearest neighbours and some compounds at random.
The entries below are paired with their reported inhibition.
Express it in %; write the number only.

>  <COMPOUND>
COc1ccc(C2NC(=S)NC3=C2CCc2ccccc23)cc1OC (centres undefined)

>  <TARGET SYSTEM>
Serine hydrolase RBBP9 (Homo sapiens) (UniProt O75884)

>  <inhibition (%)>
-1.09

$$$$
>  <COMPOUND>
CCNC(=S)N1CCC(c2nc3cc(C)c(C)cc3[nH]2)CC1

>  <TARGET SYSTEM>
Serine hydrolase RBBP9 (Homo sapiens) (UniProt O75884)

>  <inhibition (%)>
-6.72

$$$$
>  <COMPOUND>
COc1ccc(S(=O)(=O)Nc2ccc(O)c(Sc3nc4ccccc4s3)c2)cc1

>  <TARGET SYSTEM>
Serine hydrolase RBBP9 (Homo sapiens) (UniProt O75884)

>  <inhibition (%)>
-4.18

$$$$
>  <COMPOUND>
O=C(CSc1nc2ccccc2s1)Nc1ccc(C(=O)O)cc1

>  <TARGET SYSTEM>
Serine hydrolase RBBP9 (Homo sapiens) (UniProt O75884)

>  <inhibition (%)>
-5.16

$$$$
>  <COMPOUND>
Cc1c(CCO)sc[n+]1CC(=O)OC12CC3CC(CC(C3)C1)C2

>  <TARGET SYSTEM>
Serine hydrolase RBBP9 (Homo sapiens) (UniProt O75884)

>  <inhibition (%)>
6.14

$$$$

Enquiry: Provide inhibition, recorded with Serine hydrolase RBBP9 (Homo sapiens) (UniProt O75884), of Cc1occc1C(=O)N1CCCc2ccccc21
Return: 7.03

Enquiry: Provide inhibition, recorded with Serine hydrolase RBBP9 (Homo sapiens) (UniProt O75884), of C[N+](C)(C)CCOP(=O)([O-])OC[C@H](O)CO
Return: 0.46

Enquiry: Provide inhibition, recorded with Serine hydrolase RBBP9 (Homo sapiens) (UniProt O75884), of CCn1c(CNC(=O)c2ccccc2)nnc1SCC(=O)N1CCN(c2ccccc2)CC1
Return: -8.71

Enquiry: Provide inhibition, recorded with Serine hydrolase RBBP9 (Homo sapiens) (UniProt O75884), of Cc1cc(C)c[n+](-c2nc3ccccc3nc2[N-]S(=O)(=O)c2cccs2)c1
Return: -7.26

Enquiry: Provide inhibition, recorded with Serine hydrolase RBBP9 (Homo sapiens) (UniProt O75884), of Cc1cc(/C=C(/C#N)C(=O)Nc2ccc(Cl)cc2)c(C)n1-c1cccnc1
Return: -4.94

Enquiry: Provide inhibition, recorded with Serine hydrolase RBBP9 (Homo sapiens) (UniProt O75884), of CCC(=O)Nc1ccc(C(=O)Nc2cccc(OC)c2)cc1
Return: -4.79

Enquiry: Provide inhibition, recorded with Serine hydrolase RBBP9 (Homo sapiens) (UniProt O75884), of O=C(CSCc1ccccc1)N1CCc2ccccc21
Return: -3.54

Enquiry: Provide inhibition, recorded with Serine hydrolase RBBP9 (Homo sapiens) (UniProt O75884), of CC(=O)NC1=NN(C(C)=O)C(C)(CCS(=O)(=O)c2ccc(Cl)c(Cl)c2)S1 (centres undefined)
Return: -8.22

Enquiry: Provide inhibition, recorded with Serine hydrolase RBBP9 (Homo sapiens) (UniProt O75884), of O=C(c1ccc(F)cc1)N1CCC(n2nnc3ccccc32)CC1
Return: 1.82

Enquiry: Provide inhibition, recorded with Serine hydrolase RBBP9 (Homo sapiens) (UniProt O75884), of Cc1ccc(S(=O)(=O)N(C)C)cc1NC(=O)c1n[nH]c(=O)c2ccccc12
Return: 1.59

Enquiry: Provide inhibition, recorded with Serine hydrolase RBBP9 (Homo sapiens) (UniProt O75884), of C=CCN(CC=C)CCOc1ccccc1[N+](=O)[O-]
Return: -6.95

---

- TARGET SYSTEM: Serine hydrolase RBBP9 (Homo sapiens) (UniProt O75884)
- PROTOCOL DESCRIPTION: human RBBP9 inhibitors, primary screen, biochemical, fluorescence polarization, FP-Rh probe, HTS (AID 1515);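 note: plate controls were DMSO wells with RBBP9 for no effect and wells lacking RBBP9 protein for full effect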
- CONDITION DESCRIPTION: recombinant RBBP9, FP-Rh probe fluorescence polarization; at 7.94 µM
The campaign covered roughly 220,000 compounds. About 440 (0.2%) were called active.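 How the source made its calls: active means inhibition above the campaign mean of all tested compounds plus 3 SD (cut at about 14% in these data); inactive means the rest.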 Many of the other results were omitted from the sample, so actives are more common in it than they were.
Response enum: T (active), F (inactive)

>  <COMPOUND>
Cc1cc(C(=O)OCC(=O)Nc2nnc(C(C)C)s2)c2ccccc2n1

>  <LABEL>
F

$$$$
>  <COMPOUND>
O=[N+]([O-])c1c(NCCO)cc(Sc2nc3ccccc3s2)c2nonc12

>  <LABEL>
T

$$$$
>  <COMPOUND>
COC(=O)C1=C(C)N(C)C(=O)NC1c1ccc([N+](=O)[O-])o1 (stereo not drawn)

>  <LABEL>
F

$$$$
>  <COMPOUND>
CCSc1ccccc1C(=O)Nc1ccc2c(c1)OCO2

>  <LABEL>
F

$$$$
>  <COMPOUND>
CCS(=O)(=O)c1ccc(O)c(NC(=O)COc2ccc(Cl)cc2)c1

>  <LABEL>
F

$$$$
>  <COMPOUND>
Cc1cc(CO)nn1-c1ccc([N+](=O)[O-])cc1

>  <LABEL>
F

$$$$

Enquiry: Field: outcome | Entry: Cc1ccc(S(=O)(=O)/N=C(\CN2CCOCC2)N2CCOCC2)cc1
Return: F

Enquiry: Field: outcome | Entry: O=C(NNC1CC(=O)N(c2cccc(Cl)c2)C1=O)c1cccnc1 (stereo not drawn)
Return: F
